test-protocol: folding stability dG unfold from trypsin proteolysis; higher = more stable
Lab note: anything with folding stability dG unfold at or over 0.9 kcal/mol counts as met; the rest go in not met.

Study these solved cases before continuing.
[[record]]
sequence_text = "SAGGQTIEIPNGITITYYPNNQVTITIRYPGRPLTVTSPYDSPEEAIDNIIEQAREMARPPPPKKKDDSAGG [r13_896_TrROS]"
category = "not met"

[[record]]
sequence_text = "SARILRVEFEPFPLTERARLRLEVEDEDNDFPYEVDIELEVLPDPSEVRLRLVVRRPDGSRRELELRLFSAG [r14_10_TrMRF]"
category = "met"

[[record]]
sequence_text = "SAGGSKTVTVTVRIKVTNEDGEELTVTARLTYNEETGEVTVEIEMSPEALERLRELFPDVKIEIYPSAGGSA [r2_409_TrROS_Hall]"
category = "met"

[[record]]
sequence_text = "SAGGSAGGSKKVKIEINVVVPPGMTPEKAKQMAEEFAREIAEAYGGKDVKVKVRIMYIPPDQFSAGGSAGGS [r12_522_TrROS]"
category = "met"

[[record]]
sequence_text = "SAGVTLKLPFVLPGGLGVDEIEVRSLPGGRVEARLRLKGDPRYYVVARFYVLPGGRLVITDVRVRREDESAG [r14_705_TrMRF]"
category = "met"

[[record]]
sequence_text = "SAGGSAGGSAGSLLTETSESVINDTKITHVLEIDPSSGALRLILETKHPDPGIVTVELLPSAGGSAGGSAGG [r17_242_JUSTAS]"
category = "met"


Would you kindly look at the next entry?
INPUT: Hi team, for SAGGSAPPPGSTQVIVVEKRDAPPEEAAQEIADEIKEKYPNTSVEVQEEEVPPGEPVVRVTVYIPPSAGGSA [r15_916_JUSTAS] , is the recorded folding stability dG unfold at or above 0.9 kcal/mol?
OUTPUT: not met

###

test-protocol: folding stability dG unfold from trypsin proteolysis; higher = more stable
quantity-name: folding stability dG unfold (kcal/mol)
The figure you give is taken to be in kcal/mol; do not add the unit.

// solved cases for folding stability dG unfold follow
[[record]]
sequence_text = "SAGSKEEKAKEIAKKLAEELKKKFPDLKIVEVKVVKIEYNKENKEIKITIYVYNKNGKLIKKIEITLPSAGG [r19_53_TrROS_Hall]"
quantity_name = "folding stability dG unfold"
reported_value = 3.58

[[record]]
sequence_text = "SAGMMKVRIKIEVTRVEYDEETGELKEETRTIEIPIEAESEEEAEELAKKLAEELPEEEVKIVEIEPLSAGG [r19_209_TrROS_Hall]"
quantity_name = "folding stability dG unfold"
reported_value = 1.1

[[record]]
sequence_text = "SAGGEVRLRLEAELLPDGTLVLRGRVEVRVGDRVFEFEFELVLRLEPVPPPPAPARPLLIPERLLDASAGGS [r8_269_TrMRF]"
quantity_name = "folding stability dG unfold"
reported_value = 1.47

[[record]]
sequence_text = "SAGGSAGGSAGDWIMFNFTYKDPGDPGKERTITILIPIPPPPPPEPKPVKDPNGNEGPVYSAGGSAGGSAGG [r11_419_TrROS]"
quantity_name = "folding stability dG unfold"
reported_value = 1.69

[[record]]
sequence_text = "SAGGSAGGSAGGPRPLRRELRIRRRFRFRVLGLEEGEPRPREFEVEVELVLVETRGPGESAGGSAGGSAGGS [r10_118_TrMRF]"
quantity_name = "folding stability dG unfold"
reported_value = 2.65

[[record]]
sequence_text = "SAGGSAGGSAGGSKIRLKINMTEEELKELLKKLFPNAKVTRIERKKDGSIYVEIELEPESAGGSAGGSAGGS [r4_95_TrROS_Hall]"
quantity_name = "folding stability dG unfold"
reported_value = 2.94


Would you kindly look at the next entry?
INPUT: Fill in reported folding stability dG unfold for this entry: SAGGSAGGTIIIEVDTREDALEAARALAEALLPPGYRVEIVSVEEVDGRVYVAIEVRPVPEEELSAGGSAGG [r6_72_TrROS_Hall]
OUTPUT: 2.43

Ref: the supplement of paper PMC12764529
